Where do the numbers come from? From patent US20250296992A1.

Molecular target: T1, human SLITRK6 on cells (human, UniProt Q9H5Y7 27-841)
T1 construct: whole, on cells
Test: flow cytometry on RT112/84 cells
Please go through the items and note down their EC50.
Output spec: scalar in nM, unitless text.

### Prompt Report EC50 for hu1H2-03 (antibody, V domains shown, see m20) VH: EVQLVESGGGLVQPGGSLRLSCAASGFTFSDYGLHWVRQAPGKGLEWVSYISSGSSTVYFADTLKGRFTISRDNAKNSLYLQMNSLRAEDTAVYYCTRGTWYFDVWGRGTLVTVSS VL: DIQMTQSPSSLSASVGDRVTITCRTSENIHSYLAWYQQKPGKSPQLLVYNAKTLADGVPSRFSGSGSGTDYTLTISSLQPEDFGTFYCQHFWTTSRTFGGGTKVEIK please.
### Response 0.23

### Prompt What do you have for hu14G1-03 (antibody, V domains shown) VH: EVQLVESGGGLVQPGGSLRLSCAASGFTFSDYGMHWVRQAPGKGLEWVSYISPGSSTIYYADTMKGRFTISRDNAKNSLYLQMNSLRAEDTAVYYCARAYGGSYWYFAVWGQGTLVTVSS VL: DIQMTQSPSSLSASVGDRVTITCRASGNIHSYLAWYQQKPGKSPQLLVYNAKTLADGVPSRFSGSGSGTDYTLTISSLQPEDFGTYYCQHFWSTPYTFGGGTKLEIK ?
### Response 0.35

### Prompt Follow-up item: Sirtratumab (antibody, V domains shown, Prior-art benchmark antibody; also called Sirtratuzumab) VH: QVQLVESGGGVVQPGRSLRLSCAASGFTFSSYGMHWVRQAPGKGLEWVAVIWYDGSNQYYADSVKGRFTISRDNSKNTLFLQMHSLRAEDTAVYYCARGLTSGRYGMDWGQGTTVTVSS VL: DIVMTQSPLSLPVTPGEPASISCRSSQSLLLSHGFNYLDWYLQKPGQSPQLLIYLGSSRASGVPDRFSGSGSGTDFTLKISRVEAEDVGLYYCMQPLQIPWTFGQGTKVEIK
### Response 0.2
